# Target Entity: T1, ADI-74966
# T1 construct: pH-dependent anti-CD3 antibody made in CHO cells
# T1 sequence (VH, as listed by the source, chain 1 of 2): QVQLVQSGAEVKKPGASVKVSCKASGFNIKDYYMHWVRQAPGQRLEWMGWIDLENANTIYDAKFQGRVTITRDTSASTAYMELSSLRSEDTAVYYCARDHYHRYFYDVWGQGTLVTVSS
# T1 sequence (VL, as listed by the source, chain 2 of 2): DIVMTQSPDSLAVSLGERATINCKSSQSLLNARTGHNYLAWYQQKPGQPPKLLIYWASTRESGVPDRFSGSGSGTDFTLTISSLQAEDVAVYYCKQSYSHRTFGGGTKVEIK
# Assay Info: SPR Carterra avidity, yeast anti-ID
Observed Property: Kd (nM)

[[record]]
binder = "ADI-34134 IgG (antibody, V domains shown) VH: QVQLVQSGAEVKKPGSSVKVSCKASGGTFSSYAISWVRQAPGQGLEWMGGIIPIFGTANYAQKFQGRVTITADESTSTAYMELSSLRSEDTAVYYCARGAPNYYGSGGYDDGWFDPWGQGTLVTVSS VL: EIVLTQSPGTLSLSPGERATLSCRASQSVSSDYLAWYQQKPGQAPRLLIYGASSRATGIPDRFSGSGSGTDFTLTISRLEPEDFAVYYCQQFGRVPTFGGGTKVEIK"
recorded_result = 52

[[record]]
binder = "ADI-34137 (antibody, V domains shown, anti-ID IgG) VH: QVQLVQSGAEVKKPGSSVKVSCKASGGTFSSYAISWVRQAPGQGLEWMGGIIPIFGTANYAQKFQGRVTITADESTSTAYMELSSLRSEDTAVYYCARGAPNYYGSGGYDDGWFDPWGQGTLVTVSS VL: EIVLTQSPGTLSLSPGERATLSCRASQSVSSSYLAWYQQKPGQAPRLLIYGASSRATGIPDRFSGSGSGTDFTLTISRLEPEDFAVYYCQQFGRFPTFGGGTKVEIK"
recorded_result = 0.21

